Experiment: NCI Yeast Anticancer Drug Screen. Data for the sgs1 mgt1 strain (AID 161);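 also: 0% = growth of cultures given vehicle only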
Settings: S. cerevisiae sgs1 mgt1 strain, at 50.0 µM (retest, dose inferred, filed as 5.0), active compounds read high
About 79,000 compounds went through this panel and 15% of them were active in at least one assay; those are over-represented in the sample as a whole.
Classification field: YES = growth inhibition at or over 80%; NO = growth inhibition under 80%.

Look over these answered cases.
compound: COc1cc2c(cc1OC)NCC1COc3c(ccc(OC)c3OC)C1=N2 (stereo not given)
classification: NO
--
compound: O=[N+]([O-])C(=C1Nc2ccccc2N1)C(Cl)=C(Cl)Cl
classification: NO

Now look at this one.
Input: Please check the record `COc1ccc(-c2c(CO)cc(OC)c(OC)c2OC)c(CO)c1` and state if its growth inhibition is at or above 80%.
Output: NO

###

Test: NCI Yeast Anticancer Drug Screen. Data for the sgs1 mgt1 strain (AID 161);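 also: 0% = growth of cultures given vehicle only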
Conditions: S. cerevisiae sgs1 mgt1 strain, at 50.0 µM (retest, dose inferred, filed as 5.0)
The panel holds about 79,000 compounds, 15% with a hit somewhere; the sample as a whole holds those more often. Calls of active or inactive are those of the source. Rule as the data show it: active = growth inhibition above about 70%; inactive = the rest.
Respond with a class label; see active, inactive

compound: Cc1cc2c(=O)[nH]c(N)nc2nc1C
classification: inactive

compound: CC1C(CCC(=O)O)OC2CC3C4CCC5CC(O)CCC5(C)C4CCC3(C)C21 (stereo unspecified)
classification: active

compound: CN(C)CCCNCC(=O)Nc1ccc(S(=O)(=O)c2ccc(NC(=O)CNCCCN(C)C)cc2)cc1
classification: active

compound: Fc1cccc(NC(=S)SCc2ccc(Cl)cc2)c1
classification: active

compound: Cc1ccc(S(=O)(=O)NNc2nc(N(C)C)nc(N(C)C)n2)cc1
classification: inactive

compound: CC(C)C1=C(O)C2=C(C(=O)C1=O)C1(C)CCCC(C)(C)C1C(O)C2OC=O (stereo unspecified)
classification: active

compound: O=[N+]([O-])c1ccc(Cl)c(C(Nc2nncs2)Nc2nncs2)c1
classification: inactive

compound: Cc1ccc(C)c2c3c([nH]c12)-c1ccccc1CC3
classification: inactive

Input: Please state the recorded outcome for this compound: `O=[N+]([O-])c1ccc(/C(=C\c2ccccc2)Cn2ccnc2)cc1`
Output: active

Input: Please state the recorded outcome for this compound: `S=c1c2cn[nH]c2nc2scc(-c3ccc(Cl)cc3)n12`
Output: active

Input: Please state the recorded outcome for this compound: `Cc1ccc(Cc2n[nH]c(=O)n2N2C(=O)c3ccccc3C2=O)cc1`
Output: inactive

###

Test: NCI Yeast Anticancer Drug Screen. Data for the cln2 rad14 strain (AID 165);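 also: 0% = growth equal to vehicle treated cultures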
Settings: S. cerevisiae cln2 rad14 strain, at 50.0 µM, active compounds read high
Description: Growth inhibition of yeast strains with defined genetic alterations is measured as a screen for potential anti-cancer activity. Selected strains with alterations in DNA damage repair or cell cycle control were exposed to compounds and growth inhibition was measured relative to vehicle treated controls. The strain used in this assay is cln2 rad14
The panel holds about 79,000 compounds, 15% with a hit somewhere; the sample as a whole holds those more often.
# maps each entry to its growth inhibition
Field: numeric (%). Do not append units.

compound: COc1cc(CNC(=O)CCCCCCCCCCSC#N)ccc1O
growth inhibition / %: 81
--
compound: Brc1ccc(CCNCCN2CCCCC2)cc1
growth inhibition / %: 37.6
--
compound: CN(C)c1ccc(C2(Cl)c3ccccc3N(Cc3ccccc3)c3ccccc32)cc1
growth inhibition / %: 93.2
--
compound: Brc1cc2c(c(Br)c1Br)C(Br)(Br)C(c1ccccc1)=N2
growth inhibition / %: 60.4
--
compound: O=C(CC(=O)c1ccccc1NC1=Cc2ccccc2C(=O)C1=O)C(=O)NC1=C(Cl)C(=O)c2ccccc2C1=O
growth inhibition / %: 82.7

GET /value?item= `CSC(=Nc1ccccc1)NC(=O)Nc1ccc(Cl)cc1` &field=growth inhibition returns -31.2

GET /value?item= `Cc1occc1C(=S)Nc1ccc(Cl)c(COC(C)(C)C)c1` &field=growth inhibition returns 84.8

Source listed as PubChem BioAssay (NCI).
